# target: KPC-2 (Klebsiella pneumoniae)
# Sequence (Q9F663 25-293 limits assumed): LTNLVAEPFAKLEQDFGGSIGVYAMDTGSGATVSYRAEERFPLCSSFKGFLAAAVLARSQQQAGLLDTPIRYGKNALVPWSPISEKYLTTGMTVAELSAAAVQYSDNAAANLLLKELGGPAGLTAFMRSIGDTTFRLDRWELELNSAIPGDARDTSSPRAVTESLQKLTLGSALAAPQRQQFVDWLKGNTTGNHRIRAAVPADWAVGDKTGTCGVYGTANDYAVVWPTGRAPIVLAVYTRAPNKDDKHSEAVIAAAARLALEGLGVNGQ
# methodNotes: Inhibition of purified class A carbapenemase KPC-2 (Ki, carbapenem substrates)
# Type: biochemical
# conditionSet: purified KPC-2, substrate biapenem; numeric value; read-out: Ki KPC-2, Biapenem
pKi: −log10 of the molar value.
quantityMeasured: pKi

molecule	endpointValue
COc1ccc2c(c1C(=O)O)OB(O)[C@@H](Sc1nncs1)C2 [Compound 62]	8.41

----------
Collected pKi values appear next to each entry.
# target: NDM-1 (Klebsiella pneumoniae, UniProt C7C422)
# Sequence (C7C422 29-270, looked up, species assumed): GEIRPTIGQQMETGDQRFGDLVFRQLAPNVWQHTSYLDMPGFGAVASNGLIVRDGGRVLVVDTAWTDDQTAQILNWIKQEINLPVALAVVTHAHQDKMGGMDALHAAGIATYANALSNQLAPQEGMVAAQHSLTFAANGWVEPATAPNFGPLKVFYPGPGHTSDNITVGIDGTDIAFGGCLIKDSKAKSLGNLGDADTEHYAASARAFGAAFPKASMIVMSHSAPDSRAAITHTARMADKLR
# methodNotes: biochemical
# conditionSet: cleavage of imipenem (100 uM) by NDM-1; read-out: Ki, Imipenem
pKi: −log10 of the molar value.

entrySmiles	pKi
Nc1ncc(S[C@H]2Cc3ccc(F)c(C(=O)O)c3OB2O)s1	< 7.00
COc1ccc2c(c1C(=O)O)OB(O)[C@@H](Sc1nnc(C(F)(F)F)n1N)C2	< 7.00
NCc1cnc(S[C@H]2Cc3ccc(F)c(C(=O)O)c3OB2O)s1	7.00 to 8.00
O=C(O)c1c(OCC(F)F)ccc2c1OB(O)[C@@H](Sc1nncs1)C2	7.00 to 8.00
NC(=O)CCS[C@H]1Cc2cccc(C(=O)O)c2OB1O	< 7.00
COc1ccc2c(c1C(=O)O)OB(O)[C@@H](Sc1nnc(CN)n1N)C2	7.00 to 8.00
O=C(O)c1c(F)ccc2c1OB(O)[C@@H](SC1CNC1)C2	< 7.00
COc1ccc2c(c1C(=O)O)OB(O)[C@@H](Sc1nnc(N[C@H]3CCNC3)s1)C2	> 8.00
Cn1cnnc1S[C@H]1Cc2cccc(C(=O)O)c2OB1O	7.00 to 8.00
COc1ccc2c(c1C(=O)O)OB(O)[C@@H](SCCc1nnc(N)s1)C2	> 8.00
O=CNc1cnc(S[C@H]2Cc3ccc(F)c(C(=O)O)c3OB2O)s1	< 7.00
O=C(O)c1cccc2c1OB(O)[C@@H](OCc1ccccc1)C2	7.00 to 8.00
COc1ccc2c(c1C(=O)O)OB(O)[C@@H](Sc1nncn1CCCC(=O)O)C2	> 8.00
COc1ccc2c(c1C(=O)O)OB(O)[C@@H](SC1CN(S(N)(=O)=O)C1)C2	< 7.00
COc1ccc2c(c1C(=O)O)OB(O)[C@@H](Sc1nnc(NC(=N)N)s1)C2	< 7.00
Cn1cnnc1S[C@H]1Cc2ccc(F)c(C(=O)O)c2OB1O	7.00 to 8.00
COc1ccc2c(c1C(=O)O)OB(O)[C@@H](Sc1cnns1)C2	< 7.00
COc1c(Cl)cc2c(c1C(=O)O)OB(O)[C@@H](Sc1nnc(N)s1)C2	> 8.00
COc1ccc2c(c1C(=O)O)OB(O)[C@@H](Sc1nnc(OCCN)s1)C2	> 8.00
COc1ccc2c(c1C(=O)O)OB(O)[C@@H](Sc1c[nH]nn1)C2	< 7.00
COc1ccc2c(c1C(=O)O)OB(O)[C@@H](Sc1ncn(CCCC(=O)O)n1)C2	< 7.00
O=C(O)c1c(OCCF)ccc2c1OB(O)[C@@H](Sc1nncs1)C2	< 7.00
COc1ccc2c(c1C(=O)O)OB(O)[C@@H](Sc1nnc(NC3CNC3)s1)C2	> 8.00
CC(C)COc1ccc2c(c1C(=O)O)OB(O)[C@@H](Sc1nncs1)C2	7.00 to 8.00
COc1ccc2c(c1C(=O)O)OB(O)[C@@H](Sc1nnc(SCCN3CCNCC3)s1)C2	< 7.00
Nc1nnc(S[C@H]2Cc3cc4nc[nH]c4c(C(=O)O)c3OB2O)s1	< 7.00
COc1ccc2c(c1C(=O)O)OB(O)[C@@H](Sc1nnc(SCCN3CCOCC3)s1)C2	< 7.00
Nc1nnc(S[C@H]2Cc3ccc(F)c(C(=O)O)c3OB2O)s1	7.00 to 8.00
Nc1nnc(S[C@H]2Cc3c(F)cc(F)c(C(=O)O)c3OB2O)s1	< 7.00
COc1ccc2c(c1C(=O)O)OB(O)[C@@H](Sc1nnc(SCCN)s1)C2	> 8.00
Nc1nnc(S[C@H]2Cc3ccc(OCC(=O)NC4CNC4)c(C(=O)O)c3OB2O)s1	< 7.00
COc1ccc2c(c1C(=O)O)OB(O)[C@@H](Sc1nc(N)ns1)C2	< 7.00
COc1ccc2c(c1C(=O)O)OB(O)[C@@H](Sc1cncs1)C2	< 7.00
COc1ccc2c(c1C(=O)O)OB(O)[C@@H](Sc1nnc(SCCCN)s1)C2	> 8.00
O=C(O)c1cccc2c1OB(O)[C@@H](Sc1c[nH]nn1)C2	7.00 to 8.00
COc1ccc2c(c1C(=O)O)OB(O)[C@@H](Sc1nnc(NC(CN)CN)s1)C2	> 8.00
